- ASSAY_TARGET: HBsAg of HBV genotype C (DQ087960) (Hepatitis B virus)
- TEST_NAME: sandwich ELISA, captured HBsAg from culture supernatant
Consider the following binders; for each one, report its pIC50.
// pIC50 here means minus log10 of the molar concentration (mol/L)

Request: Item NOV3839 (antibody, human IgG1, kappa, V domains shown, Full human IgG1 (kappa) expressed in CHO cells) VH: QVQLQESGGRLVRPGGSLRLSCAASGFIFTDYYMTWIRQAPGKGPEWIAFITSGGETTYYADSVKGRFTISRDNAKKSLFLQMYSLRADDTAVYYCVRAHFDIYQYDTRGDFTYYFDNWGLGTLVSVSS VL: EIVMTQSPATLSVSPGERVTLSCRASQSVSSSLAWYQQKPGRAPRLLIYGASTRATGVPARFSGGGSGTDFTLTISSLQSEDFAVYYCHQYINWPPGDTFGQGTRLDIKR has what recorded pIC50?
Result: 9.43

Request: Item NOV3833 (antibody, human IgG1, lambda, V domains shown, Full human IgG1 (lambda) expressed in CHO cells) VH: EMQVLESGGGLVQPGGSLRLSCAASGFTFHNYAMSWVRQVPGKGLEWVSSISGSGGSTYYADSVKGQFTISRDNSKNTLYLQMNSLRAEDTAVYYCAKSSILSGGHARVYGIDVWGQGTTVTVSS VL: QSALTQPPSVSVAPGQTARITCGGNNIGSQSVHWYQQKPGQAPILVVYDDTDRPSGIPARFSGSSSGSTATLTIGRVEAGDEADYYCQVWDSSSDHVVFGGGTKLTVLS has what recorded pIC50?
Result: 9.92

Request: Item NOV3840 (antibody, human IgG1, lambda, V domains shown, Full human IgG1 (lambda) expressed in CHO cells) VH: EVQLLESGGGLVQPGGSRRLSCAASGFTFSYYGMNWVRQAPGKGLEWVSGITNSGSITYYADSVKGRFSISRDNSKNTLFLQMNSLRAEDTAVYYCAKVGVRSSSGMWDLDYWGQGTLVTVSS VL: SYVLTQPPSVSVAPGQTARLSCGGNNIGSKSLQWYQQKPGQAPVLVVNDDSDRPSGIPERFSGSNSGNTATLTISRVEAGDEADYYCQVWDTSSDHVVFGGGTKLTVLG has what recorded pIC50?
Result: 10.80

Request: Item NOV3831 (antibody, human IgG1, lambda, V domains shown, Full human IgG1 (lambda) expressed in CHO cells) VH: EMQVLESGGGLVQPGGSLRLSCAASGFTFNNYAMSWVRQVPGKGLEWVSSISGSGGSTYYADSVKGQFTISRDNSKNTLYLQMNSLRAEDTAVYYCAKSSILSGGHARVYGIDVWGQGTTVTVSS VL: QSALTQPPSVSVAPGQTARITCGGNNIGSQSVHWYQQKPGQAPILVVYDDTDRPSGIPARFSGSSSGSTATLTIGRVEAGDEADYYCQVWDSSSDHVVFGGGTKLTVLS has what recorded pIC50?
Result: 10.51
